Reported values of protein stability index for individual entries
experiment: protein stability index of a GFP-peptide fusion (yeast GPS) (PSI 1-4); higher = more stable; sorted into four equal gates, so the index is relative within each strain; conditions: ubr1∆
A bare number is all that is needed in reply.

Here is how some sequences turned out for protein stability index.
- SEQ TEXT: "AENDVIEATDLGNIASS [BRR2]"
  protein stability index: 3.27
- SEQ TEXT: "LEGNDIHALAAKLLQEN [FAS1]"
  protein stability index: 2.7
- SEQ TEXT: "DQVLVKGGEQISQLYSD [YJL041W/NSP1]"
  protein stability index: 3.16
- SEQ TEXT: "NNNNTIDESMPDTAIDS [GRR1]"
  protein stability index: 3
- SEQ TEXT: "SNNITSGLNRAISTGNW [RET1]"
  protein stability index: 3

The reported protein stability index of the sequence KSTASTAAANTEKLSNG [YOR098C/NUP1] was 3.31

So for PDLPALEASYSKSYTPR [SMC4] , the logged protein stability index turned out to be 2.6

Notebook: RVSKDKKSGSLTFNSKN [FAS2] , protein stability index read as 3.18

Summary for this sequence, MNDVINTEEVNRLEKEQ [LIN1] : protein stability index is 3.61

protein stability index reported for this sequence IVKGNIIDEIKCIPKKG [POP4] : 2.09

###

assay: protein stability index of a GFP-peptide fusion (yeast GPS) (PSI 1-4); higher = more stable; sorted into four equal gates, so the index is relative within each strain; details: san1∆
protein stability index vs 3: at or above is MET, below is NOT MET.

- SEQ TEXT: "TSLQGTYEAIEITDAYC [YMR129W/POM152]"
  CLASS LABEL: "NOT MET"
- SEQ TEXT: "TATASLGVIHKGNLLEG [RPN2]"
  CLASS LABEL: "NOT MET"
- SEQ TEXT: "SSTDFSTCIVSLIRNNL [ECM29]"
  CLASS LABEL: "NOT MET"
- SEQ TEXT: "GIVETNRPDNKNAQYHL [RPN7]"
  CLASS LABEL: "MET"

Quick check, protein stability index >= 3? FDKKSFFNGKALNNAIP [PRP8]
NOT MET

Item MLLANISVARKIYDAFP [DIS3] with protein stability index of 3 or above?
NOT MET

###

test: protein stability index of a GFP-peptide fusion (yeast GPS) (PSI 1-4); higher = more stable; sorted into four equal gates, so the index is relative within each strain; conditions: pdr5∆
Returns Condition met if the recorded protein stability index is greater than or equal to 3, and Condition not met otherwise.

Solved cases below.
- SEQ TEXT: "FFLSIYFFYASRPEYSC [YJL039C/NUP192]"
  CLASS LABEL: "Condition not met"
- SEQ TEXT: "TYPAGFMDVITLDATNE [RPS4A]"
  CLASS LABEL: "Condition met"
- SEQ TEXT: "SQHGQGNNPSWVNNPKK [YDL088C/ASM4]"
  CLASS LABEL: "Condition met"
- SEQ TEXT: "DDEDEDDSDNVMSSDDE [PRE10]"
  CLASS LABEL: "Condition met"
- SEQ TEXT: "GQQTAQPQQSTIGGGLF [YGR119C/NUP57]"
  CLASS LABEL: "Condition met"
- SEQ TEXT: "TKRLGTPESVKPANASH [RGR1]"
  CLASS LABEL: "Condition not met"

Quick check, protein stability index >= 3? GSSSIIYYDSYIHLAYS [SSN2]
Condition not met

Please check the record MEEEQQRQERLRQQQQQ [RPN10] and state if its protein stability index is at or above 3.
Condition not met
